src = patent US20250376505A1

Below: a set of entries, each annotated with reported EC50.
# test-system: VP1 pentamer of BKV genotype I (truncated VP1, residues 31 to 301, Dunlop sequence with Cys 104 replaced by Ser) (BK virus genotype I (Dunlop)) (UniProt P03088)
# Sequence (P03088 31-301): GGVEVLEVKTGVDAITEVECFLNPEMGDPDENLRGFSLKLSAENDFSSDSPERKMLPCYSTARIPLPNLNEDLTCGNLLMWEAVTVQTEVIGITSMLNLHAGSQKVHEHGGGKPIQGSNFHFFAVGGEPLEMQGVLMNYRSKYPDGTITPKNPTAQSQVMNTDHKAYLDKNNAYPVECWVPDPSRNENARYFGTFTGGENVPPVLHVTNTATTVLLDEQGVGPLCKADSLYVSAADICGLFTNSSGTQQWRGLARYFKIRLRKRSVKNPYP
# protocol: ELISA, coated VP1 pentamer

{"columns": ["binder", "EC50"],
 "data": [
  ["C4P7 (antibody, V domains shown) VH: EVQLLESGGGLVQPGGSLRLSCAASGFTFSSYAMSWVRQAPGKGLEWVSSLTGSGGSTYYRDSVKGRFTIFRDNSKKTLYMQMNSLRAEDTAVYYCAKEGAYSYDFWYFDLWGRGTLVTVSS VL: EIVLTQSPGTLSLSPGERATLSCRASQTVSGNYLAWYQQKPGQSPSLLIYGASSRATGIPDRFTGSGSGTDFTLTISRLEPADFAVYYCQQYGRPLTFGGGTKVEIK", "5 µg/mL"],
  ["D7P6 (antibody, V domains shown) VH: EVQLLESGGGLVQPGGSLRLSCAASGFPFSSYAMSWVRQAPGKGLEWVSGITGSASGTYYADSVKGRFTISRDNSKNTLYLRMNSLRAEDTAVYYCAKEGAYSYDYWYFDLWGRGTLVTVSS VL: EIVLTQSPGTLSLSPGERATLSCRASQSVSGSYLAWYQQKPGQTPRLLIYGASSRATGIPDRFSGSGSGTDFTLTINRLDPEDFGVYYCQQYGSLVTFGGGSKVEIK", "6 µg/mL"],
  ["B2P8 (antibody, V domains shown) VH: QVQLQESGPGLVKPSETLSLTCTVSGGSIRNSYWSWIRQPPGKGLEWIGYIYYTGTTNSNPSLKSRVTISVHMSQNQISLKLNSVTPADTAVYYCAQGGGSGDLHYWGQGTLVTVSS VL: EIVLTQSPDTLSLSPGARATLSCRASQSVRSNYLAWYQQKPGQAPRLLIYGASSRATAIPDRFSGSGSGTDFTLTITRLEPEDFAVYYCHQYASSPRTFGQGTKVEIK", "10 µg/mL"]
]}
